All figures here come from patent US20140024527A1.

molecules and their reported Plant response rating, Barnyardgrass
tested on: barnyardgrass (Echinochloa crus-galli); assay: Test A postemergence; format: in vivo; conditions: 125 g ai/ha, 0 to 100 scale, 0 no effect, 100 complete control, approx. 10 days
Simply state the number, no unit and no words.

Check out these entries, answers already filled in.
{"molecule": "COCCn1c(-c2cc(F)cc(F)c2)cnc(C(=O)C2=C(O)CCCC2=O)c1=O", "reported value": 90}
{"molecule": "COCCCn1c(-c2cc(F)cc(F)c2)c(Cl)nc(C(=O)C2=C(O)CCCC2=O)c1=O", "reported value": 10}
{"molecule": "COCCn1c(-c2cccc(F)c2)c(Cl)nc(C(=O)C2=C(O)CCCC2=O)c1=O [Compound 4]", "reported value": 60}
{"molecule": "CCCCn1c(-c2ccccc2)cnc(C(=O)C2=C(O)CCCC2=O)c1=O", "reported value": 10}
{"molecule": "O=C1CCCC(O)=C1C(=O)c1nc(Cl)c(-c2cccc(F)c2)n(C2CCCCC2)c1=O", "reported value": 0}

For the record COCCn1c(-c2cccc(F)c2)c(Cl)nc(C(=O)C2=C(O)CCCC2=O)c1=O [Compound 7] , what value of Plant response rating, Barnyardgrass is listed for barnyardgrass (Echinochloa crus-galli)?
20

For the record COCCn1c(-c2cc(F)cc(F)c2)c(Cl)nc(C(=O)C2=C(O)CCCC2=O)c1=O , what value of Plant response rating, Barnyardgrass is listed for barnyardgrass (Echinochloa crus-galli)?
90

###

molecules and their reported Plant response rating, Sedge, Umbrella
test system: umbrella sedge (Cyperus difformis); assay: Test B flooded paddy test; assay type: in vivo; conditions: Flood, 31 g ai/ha; scale 0 to 100
Simply state the number, no unit and no words.

Check out these entries, answers already filled in.
{"molecule": "O=C1CCCC(O)=C1C(=O)c1nc(Cl)c(-c2cccc(F)c2)n(C2CCCCC2)c1=O", "Plant response rating, Sedge, Umbrella": 0}
{"molecule": "COCCn1c(-c2cc(F)cc(F)c2)c(Cl)nc(C(=O)C2=C(O)CCCC2=O)c1=O", "Plant response rating, Sedge, Umbrella": 60}
{"molecule": "COCCCn1c(-c2cc(F)cc(F)c2)c(Cl)nc(C(=O)C2=C(O)CCCC2=O)c1=O", "Plant response rating, Sedge, Umbrella": 0}

For the record COCCn1c(-c2cccc(F)c2)c(Cl)nc(C(=O)C2=C(O)CCCC2=O)c1=O [Compound 4] , what value of Plant response rating, Sedge, Umbrella is listed for umbrella sedge (Cyperus difformis)?
75

###

test system: pigweed (Amaranthus retroflexus); experiment: Test A preemergence; assay type: in vivo; conditions: 500 g ai/ha, 0 to 100 scale, 0 no effect, 100 complete control, approx. 10 days
reported metric: Plant response rating, Pigweed
Simply state the number, no unit and no words.

{"molecule": "CCCCn1c(-c2ccccc2)cnc(C(=O)C2=C(O)CCCC2=O)c1=O", "Plant response rating, Pigweed": 100}
{"molecule": "COCCn1c(-c2cccc(F)c2)c(Cl)nc(C(=O)C2=C(O)CCCC2=O)c1=O [Compound 7]", "Plant response rating, Pigweed": 50}

Recorded Plant response rating, Pigweed of COCCn1c(-c2cc(F)cc(F)c2)cnc(C(=O)C2=C(O)CCCC2=O)c1=O , please.
90

###

system: rice (Oryza sativa); experiment: Test B flooded paddy test; assay type: in vivo; conditions: Flood, 62 g ai/ha; scale 0 to 100
reported metric: Plant response rating, Rice

Check out these entries, answers already filled in.
{"compound smiles": "O=C1CCCC(O)=C1C(=O)c1nc(Cl)c(-c2cccc(F)c2)n(C2CCCCC2)c1=O", "reported value": 0}
{"compound smiles": "COCCn1c(-c2cc(F)cc(F)c2)c(Cl)nc(C(=O)C2=C(O)CCCC2=O)c1=O", "reported value": 0}

Recorded Plant response rating, Rice of CCCCn1c(-c2ccccc2)cnc(C(=O)C2=C(O)CCCC2=O)c1=O , please.
70

Recorded Plant response rating, Rice of O=C1CCCC(O)=C1C(=O)c1nc(Cl)c(-c2cccc(Cl)c2)n(C2CCCCC2)c1=O , please.
0

###

tested on: umbrella sedge (Cyperus difformis); assay: Test B flooded paddy test; type: in vivo; conditions: Flood, 31 g ai/ha; scale 0 to 100
reported metric: Plant response rating, Sedge, Umbrella
Simply state the number, no unit and no words.

{"compound": "COCCn1c(-c2cccc(F)c2)c(Cl)nc(C(=O)C2=C(O)CCCC2=O)c1=O [Compound 7]", "Plant response rating, Sedge, Umbrella": 0}
{"compound": "COCCn1c(-c2cc(F)cc(F)c2)cnc(C(=O)C2=C(O)CCCC2=O)c1=O", "Plant response rating, Sedge, Umbrella": 50}

# ---- query compound ----
Recorded Plant response rating, Sedge, Umbrella of O=C1CCCC(O)=C1C(=O)c1nc(Cl)c(-c2cccc(Cl)c2)n(C2CCCCC2)c1=O , please.
0
